Hey, just so you know, these numbers are from the supplement of paper PMC10598134.

assay: collision cross section of modified peptide (TIMS, N2, iRT-aligned); higher = larger / more extended gas-phase ion; conditions: charge state: 2; modification: Malonyl
Decision: collision cross section >= 400 Å² yields TRUE, all other cases yield FALSE.

Ask: Given GGPGSTLSFVGKR [_GGPGSTLSFVGK(Malonyl)R_] , state whether its collision cross section is at least 400 Å².
Reply: FALSE

Ask: Same lookup for FSAYIKNSNPALNDNLEK [_FSAYIK(Malonyl)NSNPALNDNLEK_] , please.
Reply: TRUE

Ask: Same lookup for ITASLCDLKSR [_ITASLCDLK(Malonyl)SR_] , please.
Reply: FALSE

Ask: Same lookup for GADFLVTEVENGGSLGSKK [_GADFLVTEVENGGSLGSK(Malonyl)K_] , please.
Reply: TRUE

Ask: Same lookup for VNIGQGSHPQKVK [_VNIGQGSHPQK(Malonyl)VK_] , please.
Reply: TRUE

Ask: Same lookup for SLKLNTAEDAK [_SLK(Malonyl)LNTAEDAK_] , please.
Reply: FALSE

Ask: Same lookup for VGTASVLQPVKK [_VGTASVLQPVK(Malonyl)K_] , please.
Reply: FALSE

Ask: Same lookup for VDIDVPDVNIEGPDAKLK [_VDIDVPDVNIEGPDAK(Malonyl)LK_] , please.
Reply: TRUE

Ask: Same lookup for GSLEKGSPEDK [_GSLEK(Malonyl)GSPEDK_] , please.
Reply: FALSE

Ask: Same lookup for DSSPTTNSKLSALQR [_DSSPTTNSK(Malonyl)LSALQR_] , please.
Reply: TRUE

Ask: Same lookup for LDEKENLSAK [_LDEK(Malonyl)ENLSAK_] , please.
Reply: FALSE

Ask: Same lookup for GAEKTEVAEPR [_GAEK(Malonyl)TEVAEPR_] , please.
Reply: FALSE

Ask: Same lookup for LEQVEKELLR [_LEQVEK(Malonyl)ELLR_] , please.
Reply: FALSE

Ask: Same lookup for VDIDAPDVSIEGPDAKLK [_VDIDAPDVSIEGPDAK(Malonyl)LK_] , please.
Reply: TRUE

Ask: Same lookup for ASAISIKLGSSK [_ASAISIK(Malonyl)LGSSK_] , please.
Reply: FALSE

Ask: Same lookup for VLTANSNPSSPSAAKR [_VLTANSNPSSPSAAK(Malonyl)R_] , please.
Reply: TRUE

Ask: Same lookup for YEEIVKEVSTYIK [_YEEIVK(Malonyl)EVSTYIK_] , please.
Reply: TRUE

###

assay: collision cross section of modified peptide (TIMS, N2, iRT-aligned); higher = larger / more extended gas-phase ion; settings: charge state: 3; modification: Citrullination (R)
Decision: collision cross section >= 500 Å² yields t, all other cases yield f.

Ask: Given DSRGGGGNFGPGPGSNFR [_DSR(Citrullination (R))GGGGNFGPGPGSNFR_] , state whether its collision cross section is at least 500 Å².
Reply: f

Ask: Same lookup for PGGLGSSSLYGLGASRPR [_PGGLGSSSLYGLGASR(Citrullination (R))PR_] , please.
Reply: t

Ask: Same lookup for STNVTVAAARGIK [_STNVTVAAAR(Citrullination (R))GIK_] , please.
Reply: f

###

assay: collision cross section of modified peptide (TIMS, N2, iRT-aligned); higher = larger / more extended gas-phase ion; conditions: charge state: 2; modification: Methyl (R)
ATTRIBUTE MEASURED: collision cross section (Å²)
Record the value in Å², omitting the unit from your answer.

Ask: Given the entry VRFHNPR [_VR(Methyl (R))FHNPR_] , report its measured collision cross section.
Reply: 340.13

Ask: Same lookup for RLPTTGYLVYR [_R(Methyl (R))LPTTGYLVYR_] , please.
Reply: 391.98

Ask: Same lookup for GGSAGGRGFFR [_GGSAGGR(Methyl (R))GFFR_] , please.
Reply: 365.18

Ask: Same lookup for PARGLYSR [_PAR(Methyl (R))GLYSR_] , please.
Reply: 338.81

Ask: Same lookup for AVPSSPAGSAARGR [_AVPSSPAGSAAR(Methyl (R))GR_] , please.
Reply: 387.69

Ask: Same lookup for VLATQPGPGRGR [_VLATQPGPGR(Methyl (R))GR_] , please.
Reply: 376.85

Ask: Same lookup for RGGFAVQAK [_R(Methyl (R))GGFAVQAK_] , please.
Reply: 338.01

Ask: Same lookup for GGGGGGGGGAPRGR [_GGGGGGGGGAPR(Methyl (R))GR_] , please.
Reply: 346.08

Ask: Same lookup for GRGGAESHTFK [_GR(Methyl (R))GGAESHTFK_] , please.
Reply: 352.3

Ask: Same lookup for SHLRHAIPSAER [_SHLR(Methyl (R))HAIPSAER_] , please.
Reply: 404.4

Ask: Same lookup for FSHSVQNSERGK [_FSHSVQNSER(Methyl (R))GK_] , please.
Reply: 405.91

###

assay: collision cross section of modified peptide (TIMS, N2, iRT-aligned); higher = larger / more extended gas-phase ion; conditions: charge state: 3; modification: Methyl (K)
± gives the standard deviation.
So I've got a bunch of sequences here, and I need their collision cross section values.

Ask: Given the entry VGTASVLQPVKK [_VGTASVLQPVK(Methyl (K))K_] , report its measured collision cross section.
Reply: 460.66 ± 3.8 Å²

Ask: Same lookup for TVSKVDDFLANEAK [_TVSK(Methyl (K))VDDFLANEAK_] , please.
Reply: 471.08 ± 3.6 Å²

Ask: Same lookup for VNALKNLQVK [_VNALK(Methyl (K))NLQVK_] , please.
Reply: 420.52 ± 3.9 Å²

Ask: Same lookup for ANLEKAQAELVGTADEATR [_ANLEK(Methyl (K))AQAELVGTADEATR_] , please.
Reply: 523.1 ± 0.87 Å²

Ask: Same lookup for GTISAPGKVVTAAAQAK [_GTISAPGK(Methyl (K))VVTAAAQAK_] , please.
Reply: 495.95 ± 2.3 Å²

Ask: Same lookup for GAEKTEVAEPR [_GAEK(Methyl (K))TEVAEPR_] , please.
Reply: 441.71 ± 4.3 Å²

Ask: Same lookup for SSGPGGQNVNKVNSK [_SSGPGGQNVNK(Methyl (K))VNSK_] , please.
Reply: 442.38 ± 4.2 Å²

Ask: Same lookup for IHVQSSSDSSDEPAEKR [_IHVQSSSDSSDEPAEK(Methyl (K))R_] , please.
Reply: 522.27 ± 1 Å²

Ask: Same lookup for LAEEENKAK [_LAEEENK(Methyl (K))AK_] , please.
Reply: 422.11 Å²

Ask: Same lookup for SLKLNTAEDAK [_SLK(Methyl (K))LNTAEDAK_] , please.
Reply: 470.64 ± 4.7 Å²

Ask: Same lookup for IVSGKDYNVTANSK [_IVSGK(Methyl (K))DYNVTANSK_] , please.
Reply: 471.19 ± 3.6 Å²

###

assay: collision cross section of modified peptide (TIMS, N2, iRT-aligned); higher = larger / more extended gas-phase ion; conditions: charge state: 2; modification: Propionyl
ATTRIBUTE MEASURED: collision cross section (Å²)
Record the value in Å², omitting the unit from your answer.

Ask: Given the entry SPDEAYAIAKK [_SPDEAYAIAK(Propionyl)K_] , report its measured collision cross section.
Reply: 373.53

Ask: Same lookup for LLEQKTQESQK [_LLEQK(Propionyl)TQESQK_] , please.
Reply: 393.54

Ask: Same lookup for DTGEKLTVAENEAETK [_DTGEK(Propionyl)LTVAENEAETK_] , please.
Reply: 443.51

Ask: Same lookup for VGTASVLQPVKK [_VGTASVLQPVK(Propionyl)K_] , please.
Reply: 382.42

Ask: Same lookup for TLDEILQEKK [_TLDEILQEK(Propionyl)K_] , please.
Reply: 380.38

Ask: Same lookup for SLEEEGAAHSGKR [_SLEEEGAAHSGK(Propionyl)R_] , please.
Reply: 416.58

Ask: Same lookup for DASTLQSQKAEGTGDAK [_DASTLQSQK(Propionyl)AEGTGDAK_] , please.
Reply: 434.77

Ask: Same lookup for DLGKFQVATDALK [_DLGK(Propionyl)FQVATDALK_] , please.
Reply: 407.94

Ask: Same lookup for VLTANSNPSSPSAAKR [_VLTANSNPSSPSAAK(Propionyl)R_] , please.
Reply: 429.75

Ask: Same lookup for PSVGSQSNQAGQGKR [_PSVGSQSNQAGQGK(Propionyl)R_] , please.
Reply: 412.6

Ask: Same lookup for IGNSYFKEEK [_IGNSYFK(Propionyl)EEK_] , please.
Reply: 375.51

Ask: Same lookup for SSFAYKDQNENR [_SSFAYK(Propionyl)DQNENR_] , please.
Reply: 401.75

Ask: Same lookup for LAEEENKAK [_LAEEENK(Propionyl)AK_] , please.
Reply: 352.31

Ask: Same lookup for DHLSDKESK [_DHLSDK(Propionyl)ESK_] , please.
Reply: 355.5

Ask: Same lookup for SLKLNTAEDAK [_SLK(Propionyl)LNTAEDAK_] , please.
Reply: 376

Ask: Same lookup for ANEKTESSSAQQVAVSR [_ANEK(Propionyl)TESSSAQQVAVSR_] , please.
Reply: 439.84

Ask: Same lookup for DAEAAEATAEGALKAEK [_DAEAAEATAEGALK(Propionyl)AEK_] , please.
Reply: 451.16

Ask: Same lookup for VGEFSGANKEK [_VGEFSGANK(Propionyl)EK_] , please.
Reply: 367.87

Ask: Same lookup for GETASKLQSEISR [_GETASK(Propionyl)LQSEISR_] , please.
Reply: 387.23

Ask: Same lookup for GGPGSTLSFVGKR [_GGPGSTLSFVGK(Propionyl)R_] , please.
Reply: 384.23

Ask: Same lookup for LQDVSGQLSSSKK [_LQDVSGQLSSSK(Propionyl)K_] , please.
Reply: 399.52

Ask: Same lookup for SGFGKFER [_SGFGK(Propionyl)FER_] , please.
Reply: 336.62

Ask: Same lookup for TLQKQSVVYGGK [_TLQK(Propionyl)QSVVYGGK_] , please.
Reply: 393.92

Ask: Same lookup for VETTVTSLKTK [_VETTVTSLK(Propionyl)TK_] , please.
Reply: 382.91

Ask: Same lookup for ALLQAKASGK [_ALLQAK(Propionyl)ASGK_] , please.
Reply: 350.75

Ask: Same lookup for SITHSTVGSKGEK [_SITHSTVGSK(Propionyl)GEK_] , please.
Reply: 395.17

Ask: Same lookup for IQTKAGEATVK [_IQTK(Propionyl)AGEATVK_] , please.
Reply: 369.17

Ask: Same lookup for LLEEEDSKLK [_LLEEEDSK(Propionyl)LK_] , please.
Reply: 383.32

Ask: Same lookup for TEVLSPNSKVESK [_TEVLSPNSK(Propionyl)VESK_] , please.
Reply: 413.62

Ask: Same lookup for GAEKTEVAEPR [_GAEK(Propionyl)TEVAEPR_] , please.
Reply: 373.13

Ask: Same lookup for LEKTIDDLEEK [_LEK(Propionyl)TIDDLEEK_] , please.
Reply: 406.15

Ask: Same lookup for SDDESSQKDIK [_SDDESSQK(Propionyl)DIK_] , please.
Reply: 377.44

Ask: Same lookup for LTSLNVKYNNDK [_LTSLNVK(Propionyl)YNNDK_] , please.
Reply: 410.81

Ask: Same lookup for DSSPTTNSKLSALQR [_DSSPTTNSK(Propionyl)LSALQR_] , please.
Reply: 430.82

Ask: Same lookup for PSVSTKLISK [_PSVSTK(Propionyl)LISK_] , please.
Reply: 354.68

Ask: Same lookup for AGPNASIISLKSDK [_AGPNASIISLK(Propionyl)SDK_] , please.
Reply: 409.61

Ask: Same lookup for ILDLKTGTVK [_ILDLK(Propionyl)TGTVK_] , please.
Reply: 359.51

Ask: Same lookup for LTEKELAEAASK [_LTEK(Propionyl)ELAEAASK_] , please.
Reply: 389.08

Ask: Same lookup for SEASSEFAKK [_SEASSEFAK(Propionyl)K_] , please.
Reply: 351.7
